Target: Hexose transporter 1 (Plasmodium falciparum) (UniProt O97467)
Assay: ST_JUDE_LEISH: Cytotoxicity at 2uM final concentration against transgenic Leishmania Mexicana promastigotes LmPfHT that are glucose transport deficient and complemented with the Plasmodium falciparum hexose transporter. Activity is measured by DNA content using SYBR green in vitro
Assay type: functional
measured-quantity: inhibition (%)
Express the result in % but write the number alone.

The molecule listed as `O=c1c2ccccc2[nH]c2cc(Cl)ccc12` has a reported inhibition of 7.05

The molecule listed as COC(=O)c1cc(C(O)CNC(C)CCCc2ccccc2)ccc1O (centres undefined) has a reported inhibition of -0.05

The molecule listed as `Cc1onc(-c2c(Cl)cccc2Cl)c1C(=O)NC1=NC(C)(C)ON1c1ccccc1` has a reported inhibition of 5.44

The molecule listed as `O=S(=O)(c1c(Cl)cc(Cl)cc1Cl)N1CCCCC(c2ccc(F)c(F)c2)=N1` has a reported inhibition of 2.09

The molecule listed as `CCN(CC)CCCNC(=O)/C(=C/C=C/c1cc2cc(Cl)c(Cl)cc2[nH]1)OC` has a reported inhibition of 11.3

The molecule listed as `CC(=O)Nc1ccc(CN(Cc2ccc(F)cc2)Cc2cccc(Oc3ccccc3)c2)cc1` has a reported inhibition of 1.73

The molecule listed as `CCOc1c(CNCCCNc2nc3ccccc3[nH]2)cc(Br)cc1OC` has a reported inhibition of -3.13

The molecule listed as `COc1cc(-n2c(CN3CCCC3)nc3cc(-c4ccc(Cl)cc4)sc3c2=O)ccc1OCCN1CCCC1` has a reported inhibition of 2.69

The molecule listed as `CNC(=O)Cc1ccc(C(=O)Nc2cccc(-c3cccc(-c4nc5cc(C(F)(F)F)ccc5[nH]4)c3)c2)cc1` has a reported inhibition of 0.81

The molecule listed as `O=C(/C=C/c1ccccc1O)N1CCC(CCN2CCC(c3c[nH]c4ccccc34)CC2)CC1` has a reported inhibition of -3.35

The molecule listed as `O=C(/C=C/c1ccc(Cl)c(Cl)c1)NCCCCCN1CCC(NC(=O)Nc2ccc3c(c2)OCO3)CC1` has a reported inhibition of 2.53

The molecule listed as `Cc1ccccc1C1CCN(c2ccc(C(=O)Nc3ccc(F)cc3)cn2)CC1` has a reported inhibition of -0.36

The molecule listed as `FC(F)(F)c1ccc2[nH]c(-c3cccc(-c4ccc(CNCc5ccccc5)cc4)c3)nc2c1` has a reported inhibition of -1.13

The molecule listed as COc1ccc(Br)cc1C1C2C(=O)N(c3ccc(Br)cc3)C(=O)C2C2(C(=O)O)CC(OCc3ccccc3)CN12 (centres undefined) has a reported inhibition of 12

====

Exercise: for every item that follows, state its recorded inhibition.
Biological target: Solute carrier family 2, facilitated glucose transporter member 1 (Homo sapiens) (UniProt P11166)
Sequence (P11166 whole entry): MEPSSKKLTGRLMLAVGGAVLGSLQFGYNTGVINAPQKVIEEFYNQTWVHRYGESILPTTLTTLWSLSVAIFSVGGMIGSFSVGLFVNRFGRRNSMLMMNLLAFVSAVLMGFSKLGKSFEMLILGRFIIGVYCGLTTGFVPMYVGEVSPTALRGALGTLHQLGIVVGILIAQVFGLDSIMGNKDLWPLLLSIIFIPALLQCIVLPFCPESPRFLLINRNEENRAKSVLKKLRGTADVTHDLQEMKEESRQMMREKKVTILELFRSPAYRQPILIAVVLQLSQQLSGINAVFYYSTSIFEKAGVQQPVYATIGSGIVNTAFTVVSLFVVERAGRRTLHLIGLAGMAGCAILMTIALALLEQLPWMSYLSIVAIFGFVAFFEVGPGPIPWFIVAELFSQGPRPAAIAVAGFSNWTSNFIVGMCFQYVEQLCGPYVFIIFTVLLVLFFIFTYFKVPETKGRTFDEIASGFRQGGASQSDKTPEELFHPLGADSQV
Experiment: ST_JUDE_LEISH: Cytotoxicity at 2uM final concentration against transgenic Leishmania Mexicana promastigotes LmGLUT1 that are glucose transport deficient and complemented with the human glucose transporter GLUT1. Activity is measured by DNA content using SYBR green in vitro
Type: functional
Express the result in % but write the number alone.

The molecule listed as `CCCCCCN1CCC(NCc2ccc(Cl)cc2)CC1` has a reported inhibition of 7.59

The molecule listed as `CN(C)c1cc(NN=Cc2cc(Cl)ccc2O)nc(N(C)C)n1` has a reported inhibition of 4.76

The molecule listed as O=C(NC1CC1c1ccccc1)N(CCCn1ccnc1)Cc1csc(-c2ccc(CNCc3ccccc3)cc2)n1 (stereo not given) has a reported inhibition of 1.52

The molecule listed as `CCCCN1CCCC[C@H]1[C@@H](O)c1ccnc2ccc(OCC)cc12` has a reported inhibition of 2.63

The molecule listed as `C=CC[C@H](NC(=O)c1ccc(NS(=O)(=O)c2ccc3nc(N)[nH]c(=O)c3c2)cc1)C(=O)OCCCC` has a reported inhibition of 0.58

====

Biological target: Solute carrier family 2, facilitated glucose transporter member 1 (Homo sapiens)
Assay: ST_JUDE_LEISH: Cytotoxicity at 2uM final concentration against transgenic Leishmania Mexicana promastigotes LmGLUT1 that are glucose transport deficient and complemented with the human glucose transporter GLUT1. Activity is measured by DNA content using SYBR green in vitro
Assay type: functional
Binary call on inhibition: Satisfied from 3% upward, Not satisfied beneath that.

Evaluate `CN(C)c1cc(NC(=O)Nc2ccccc2)c2ccccc2n1` : inhibition at minimum 3%?
Not satisfied

Evaluate OC1CCCN(Cc2ccc(-c3ccc(-c4nc5cc(F)ccc5[nH]4)cc3)cc2)C1 (stereo not given) : inhibition at minimum 3%?
Satisfied

Evaluate `CCCNC(=O)c1ccc(N2CCC(c3ccccc3C)CC2)nc1` : inhibition at minimum 3%?
Not satisfied

Evaluate `Brc1cccc(Nc2nccc(Nc3ccc(Oc4ccccc4)cc3)n2)c1` : inhibition at minimum 3%?
Satisfied

Evaluate CN1CCCC1CCNc1ncc2c(-c3ccc(NC(=O)Nc4cc(C(F)(F)F)ccc4F)cc3)nn(C)c2n1 (stereo not given) : inhibition at minimum 3%?
Satisfied

====

Molecular target: Glucose transporter (Leishmania mexicana) (UniProt O61059)
Assay: ST_JUDE_LEISH: Cytotoxicity at 2uM final concentration against transgenic Leishmania Mexicana promastigotes LmGT2 that are glucose transport deficient and complemented with the L. Mexicana glucose transporter 2. Activity is measured by DNA content using SYBR green in vitro
Format: functional
measured-quantity: inhibition (%)
Express the result in % but write the number alone.

The compound listed as `COc1cc(Nc2ccnc3cc(-c4ccccn4)ccc23)cc(OC)c1OC` has a reported inhibition of 5.6

The compound listed as `CCc1cc2c3c(N)nc(N)nc3ccc2n1C(C)(C)C` has a reported inhibition of 78.4

The compound listed as `CCCCCc1cc(O)c2c(c1)OC(C)(C)C=C2C1=CCN(Cc2ccsc2)CC1` has a reported inhibition of 2.52

The compound listed as `COc1ccc(CCN(C)CCOc2ccc(NC(=O)c3cccc4c(=O)c5cc(SC)ccc5[nH]c34)cc2)cc1OC` has a reported inhibition of 6.56

The compound listed as `CCCCCCCc1c(C)[nH]c2ccc(F)cc2c1=O` has a reported inhibition of -0.32

====

Molecular target: Glucose transporter (Leishmania mexicana)
Assay: ST_JUDE_LEISH: Cytotoxicity at 2uM final concentration against transgenic Leishmania Mexicana promastigotes LmGT2 that are glucose transport deficient and complemented with the L. Mexicana glucose transporter 2. Activity is measured by DNA content using SYBR green in vitro
Type: functional
measured-quantity: inhibition (%)
Express the result in % but write the number alone.

The molecule listed as `Cc1cc(C(F)(F)F)n2nc(C(=O)N(C)Cc3cncn3Cc3ccc(F)cc3)cc2n1` has a reported inhibition of 1.49

The molecule listed as CCC(C)CN1CCN(c2cc(NC(=O)c3cccs3)ccn2)C(C)C1 (stereo unspecified) has a reported inhibition of 1.68

The molecule listed as `CCCN(CC)CCOC(=O)c1ccccc1` has a reported inhibition of 9.33

The molecule listed as `CCOC(=O)c1ccc(N2CCCCC2)c(NC(=O)C(Cl)(Cl)Cl)c1` has a reported inhibition of -1.19

The molecule listed as `FC(F)(F)c1ccc(-c2cncc(-c3ccc(C(F)(F)F)cc3)n2)cc1` has a reported inhibition of -1.64

The molecule listed as `COc1cccc(C(=O)Nc2nonc2-c2ccc(OC)c(OC)c2)c1` has a reported inhibition of 1.34

====

Exercise: for every item that follows, state its recorded inhibition.
Target: Hexose transporter 1 (Plasmodium falciparum) (UniProt O97467)
Experiment: ST_JUDE_LEISH: Cytotoxicity at 2uM final concentration against transgenic Leishmania Mexicana promastigotes LmPfHT that are glucose transport deficient and complemented with the Plasmodium falciparum hexose transporter. Activity is measured by DNA content using SYBR green in vitro
Assay type: functional
Express the result in % but write the number alone.

Record N#Cc1ccc2c(c1)CCN(CCC1CCC(NC(=O)c3ccc(-c4ccccn4)s3)CC1)CC2 (stereo not given) / Hexose transporter 1 (Plasmodium falciparum) (UniProt O97467), inhibition recorded as 9.45

Record `O=C(/C=C/c1ccc(Cl)c(Cl)c1)N1CCC(CCN2CCC(c3nc4cc(O)ccc4[nH]3)CC2)CC1` / Hexose transporter 1 (Plasmodium falciparum) (UniProt O97467), inhibition recorded as 0.59

Record `Cc1ccc(NC(=O)c2ccc(N3CCN(c4ccncc4)CC3)cn2)cc1F` / Hexose transporter 1 (Plasmodium falciparum) (UniProt O97467), inhibition recorded as 95.4

Record `COc1ccc(C(=O)O)cc1OCc1ccccc1` / Hexose transporter 1 (Plasmodium falciparum) (UniProt O97467), inhibition recorded as -0.29

Record `O=C(NC1CC1)c1cnc(N2CCC(c3ccccc3)CC2)c(Cl)c1` / Hexose transporter 1 (Plasmodium falciparum) (UniProt O97467), inhibition recorded as 6.43

====

Exercise: for every item that follows, state its recorded inhibition.
Target: Glucose transporter (Leishmania mexicana)
Test: ST_JUDE_LEISH: Cytotoxicity at 2uM final concentration against transgenic Leishmania Mexicana promastigotes LmGT2 that are glucose transport deficient and complemented with the L. Mexicana glucose transporter 2. Activity is measured by DNA content using SYBR green in vitro
Assay type: functional
Express the result in % but write the number alone.

The compound listed as `CCCCCCc1ncc(-c2cc3cc(O)c(-c4ccccc4)cc3oc2=O)s1` has a reported inhibition of -5.92

The compound listed as O=C(Nc1ccc(-c2nc3ccccc3[nH]2)cc1)C1CCCN(CC2CC2)C1 (stereo not given) has a reported inhibition of 4.89

The compound listed as CCNCCCC(C)Nc1ccnc2cc(Cl)ccc12 (stereo not given) has a reported inhibition of -2.34

The compound listed as `Cc1ccc(Nc2cc(C)nn2-c2nc(C)cc(O)n2)cc1` has a reported inhibition of 67.6

The compound listed as `COc1cc2nc(N(C)Cc3cc4c(Cl)cccc4s3)nc(N)c2cc1OC` has a reported inhibition of -3.11

The compound listed as `Cc1cnc(NCC2CCCCC2)nc1NCC(=O)Nc1ccccc1` has a reported inhibition of 6.18

The compound listed as `CCN(CC)CCNC(=O)/C(=C/C=C/c1cc2cc(Cl)c(Cl)cc2[nH]1)OC` has a reported inhibition of -1.46

The compound listed as `N=C(N)c1cccc(OCCCOc2cccc(NC(=O)Nc3ccc([N+](=O)[O-])cc3)c2)c1` has a reported inhibition of 2.32

The compound listed as `C=CCc1ccc(C[C@H](NC(=O)OC(C)(C)C)C(=O)OC)cc1` has a reported inhibition of 34.5

The compound listed as `O=S(=O)(NCCN1CCCC1)c1cccc(-c2ccc(CNCc3ccccc3)cc2)c1` has a reported inhibition of 2.83
